Origin of measurements: ChEMBL document CHEMBL1158155

System: A2780
Assay Method Text: Cytotoxicity against human A2780 cells after 4 days by MTT assay
Format: functional, cell-based
Applied Conditions: A2780, 96 h
For each record, write down the corresponding IC50.
Numbers only, in nM.

# return IC50 for each item in the list
1. CC[C@@]1(O)C(=O)OCc2c1cc1n(c2=O)Cc2cc3c4c(ccc3nc2-1)OCN(c1cccc(C)c1)C4
2. CCCN1COc2ccc3nc4c(cc3c2C1)Cn1c-4cc2c(c1=O)COC(=O)[C@]2(O)CC
3. CC[C@@]1(O)C(=O)OCc2c1cc1n(c2=O)Cc2cc3c4c(ccc3nc2-1)OCN(c1ccc(Cl)cc1)C4

1. 850
2. 90
3. 820
